All values here come from patent US8993632B2.

Biological target: truncated human 11β-HSD-1 enzyme (24-287AA) (Homo sapiens, UniProt P28845)
Construct: truncated human 11β-HSD-1 enzyme (24-287AA)
Sequence (P28845 24-287): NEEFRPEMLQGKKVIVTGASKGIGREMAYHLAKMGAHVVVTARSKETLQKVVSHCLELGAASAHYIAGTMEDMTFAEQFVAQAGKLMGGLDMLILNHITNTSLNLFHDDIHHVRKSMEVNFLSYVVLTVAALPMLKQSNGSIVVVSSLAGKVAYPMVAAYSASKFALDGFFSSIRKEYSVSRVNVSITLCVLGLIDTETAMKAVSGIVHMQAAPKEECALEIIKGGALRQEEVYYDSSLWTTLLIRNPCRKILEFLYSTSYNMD
Assay: 11β-HSD-1 enzymatic Scintillation Proximity Assay (SPA)
RECORDED METRIC: IC50 (nM)

Example entries begin here.
molecule="O=C(O)C12CC3CC(C1)C(NC(=O)C1(c4ccccc4)CC1)C(C3)C2 (centres unmarked)" target_or_test_system="truncated human 11β-HSD-1 enzyme (24-287AA) (Homo sapiens, UniProt P28845)" recorded_metric=IC50 quantitative_result=102
molecule="O=C(O)C12CC3CC(C1)C(NC(=O)C1(c4ccc(Cl)cc4)CCC1)C(C3)C2 (centres unmarked)" target_or_test_system="truncated human 11β-HSD-1 enzyme (24-287AA) (Homo sapiens, UniProt P28845)" recorded_metric=IC50 quantitative_result=43
molecule=NC(=O)[C@]12C[C@@H]3C[C@H](C1)[C@@H](NC(=O)C1(c4ccccc4)CCCC1)[C@@H](C3)C2 target_or_test_system="truncated human 11β-HSD-1 enzyme (24-287AA) (Homo sapiens, UniProt P28845)" recorded_metric=IC50 quantitative_result=43
molecule=Cc1ccc(C2(C(=O)N[C@@H]3[C@@H]4C[C@@H]5C[C@H]3C[C@@](C(N)=O)(C5)C4)CC2)cc1 target_or_test_system="truncated human 11β-HSD-1 enzyme (24-287AA) (Homo sapiens, UniProt P28845)" recorded_metric=IC50 quantitative_result=37
molecule=CC(C)(C(=O)N[C@@H]1[C@@H]2C[C@@H]3C[C@H]1C[C@@](C(N)=O)(C3)C2)c1ccc(C(F)(F)F)cn1 target_or_test_system="truncated human 11β-HSD-1 enzyme (24-287AA) (Homo sapiens, UniProt P28845)" recorded_metric=IC50 quantitative_result=23

A. CC(C)(C(=O)N[C@@H]1[C@@H]2C[C@@H]3C[C@H]1C[C@@](C(N)=O)(C3)C2)c1ccc(-c2ccc(C(F)(F)F)cn2)cc1
B. NC(=O)[C@]12C[C@@H]3C[C@H](C1)[C@@H](NC(=O)C1(c4ccc(F)cc4Cl)CCCC1)[C@@H](C3)C2
C. CC(C)(C(=O)N[C@@H]1[C@@H]2C[C@@H]3C[C@H]1C[C@@](C(N)=O)(C3)C2)c1ccsc1
Arrange the 3 entries by IC50 so the values rise. Please reply with the labels ordered as requested. Many thanks.
C, B, A
(C: 19 nM, B: 30 nM, A: 104 nM)

P. CC(C)(C(=O)N[C@@H]1[C@@H]2C[C@@H]3C[C@H]1C[C@@](C(=O)O)(C3)C2)c1ccccc1
Q. CC(C)(C(=O)N[C@@H]1[C@@H]2C[C@@H]3C[C@H]1C[C@@](C(N)=O)(C3)C2)c1ccc(Cl)cc1
When P and Q are compared, which has the higher number for IC50? Indicate which entry you chose by stating its label.
P

====

Molecular target: truncated human 11β-HSD-1 enzyme (24-287AA) (Homo sapiens)
Construct: truncated human 11β-HSD-1 enzyme (24-287AA)
Assay: 11β-HSD-1 enzymatic Scintillation Proximity Assay (SPA)
RECORDED METRIC: IC50 (nM)

molecule=NC(=O)[C@]12C[C@@H]3C[C@H](C1)[C@@H](NC(=O)C1(c4ccc(Cl)cc4)CCCCC1)[C@@H](C3)C2 recorded_metric=IC50 output_unit=nM quantitative_result=59

I. Cc1noc(C)c1-c1ccc(C(C)(C)C(=O)N[C@@H]2[C@@H]3C[C@@H]4C[C@H]2C[C@@](C(N)=O)(C4)C3)cc1
II. Cc1ccccc1CN1CCC(C)(C(=O)N[C@@H]2[C@@H]3C[C@@H]4C[C@H]2C[C@@](C(N)=O)(C4)C3)C1=O (some centres unmarked)
III. CC(C)(C(=O)N[C@@H]1[C@@H]2C[C@@H]3C[C@H]1C[C@@](C(=O)NCc1ccc(C(=O)O)cc1)(C3)C2)c1cccs1
Please give the order of these molecules when sorted by IC50, largest value leading. Please reply with the labels ordered as requested. Many thanks.
III, I, II
(III: 95 nM, I: 44 nM, II: 23 nM)

====

Target: truncated human 11β-HSD-1 enzyme (24-287AA) (Homo sapiens, UniProt P28845)
Construct: truncated human 11β-HSD-1 enzyme (24-287AA)
Experiment: 11β-HSD-1 enzymatic Scintillation Proximity Assay (SPA)
RECORDED METRIC: IC50 (nM)

substance_smiles=COc1ccc(C2(C(=O)N[C@@H]3[C@@H]4C[C@@H]5C[C@H]3C[C@@](C(N)=O)(C5)C4)CC2)cc1 output_unit=nM quantitative_result=27
substance_smiles=Cn1cc(-c2ccc(C(C)(C)C(=O)N[C@@H]3[C@@H]4C[C@@H]5C[C@H]3C[C@@](C(N)=O)(C5)C4)cc2)cn1 output_unit=nM quantitative_result=28
substance_smiles=NC(=O)[C@]12C[C@@H]3C[C@H](C1)[C@@H](NC(=O)C1(c4ccc(Cl)cc4)CC1)[C@@H](C3)C2 output_unit=nM quantitative_result=33
substance_smiles=NC(=O)[C@]12C[C@@H]3C[C@H](C1)[C@@H](NC(=O)C1(c4ccccc4F)CCCC1)[C@@H](C3)C2 output_unit=nM quantitative_result=38

====

Target: truncated human 11β-HSD-1 enzyme (24-287AA) (Homo sapiens)
Construct: truncated human 11β-HSD-1 enzyme (24-287AA)
Experiment: 11β-HSD-1 enzymatic Scintillation Proximity Assay (SPA)
RECORDED METRIC: IC50 (nM)

Example entries begin here.
compound="NC(=O)[C@]12C[C@@H]3C[C@H](C1)[C@@H](NC(=O)C1(c4ccc(Cl)cc4Cl)CC1)[C@@H](C3)C2 [Q]" recorded_metric=IC50 output_unit=nM quantitative_result=36
compound="CC(C)(C(=O)N[C@@H]1[C@@H]2C[C@@H]3C[C@H]1C[C@@](C(N)=O)(C3)C2)c1cccc(Br)c1 [GG]" recorded_metric=IC50 output_unit=nM quantitative_result=17
compound="CC(C)(C(=O)N[C@@H]1[C@@H]2C[C@@H]3C[C@H]1C[C@@](C(N)=O)(C3)C2)c1ccc(Br)cc1 [Z]" recorded_metric=IC50 output_unit=nM quantitative_result=21

1. CC1(C(=O)N[C@@H]2[C@@H]3C[C@@H]4C[C@H]2C[C@@](C(N)=O)(C4)C3)CCCCC1 [P]
2. CC(C)(C(=O)N[C@@H]1[C@@H]2C[C@@H]3C[C@H]1C[C@@](C(N)=O)(C3)C2)c1cccs1 [U]
3. NC(=O)[C@]12C[C@@H]3C[C@H](C1)[C@@H](NC(=O)C1(c4cccc(F)c4)CCCC1)[C@@H](C3)C2 [Compound L]
Arrange the 3 entries by IC50 so the values rise. Please reply with the labels ordered as requested. Many thanks.
2, 3, 1

====

Target: truncated human 11β-HSD-1 enzyme (24-287AA) (Homo sapiens)
Construct: truncated human 11β-HSD-1 enzyme (24-287AA)
Assay: 11β-HSD-1 enzymatic Scintillation Proximity Assay (SPA)
RECORDED METRIC: IC50 (nM)

Example entries begin here.
molecule="CC1(C(=O)N[C@@H]2[C@@H]3C[C@@H]4C[C@H]2C[C@@](C(N)=O)(C4)C3)CCN(Cc2ccccc2Cl)C1=O (stereo partly shown)" recorded_metric=IC50 quantitative_result=23
molecule=CC(C)(C(=O)N[C@@H]1[C@@H]2C[C@@H]3C[C@H]1C[C@@](C(N)=O)(C3)C2)c1ccc(-c2ccncc2)cc1 recorded_metric=IC50 quantitative_result=31

P. COc1ccc(C2(C(=O)N[C@@H]3[C@@H]4C[C@@H]5C[C@H]3C[C@@](C(N)=O)(C5)C4)CCCC2)cc1
Q. NC(=O)[C@]12C[C@@H]3C[C@H](C1)[C@@H](NC(=O)C1(c4ccc(F)cc4)CCCC1)[C@@H](C3)C2
# return whichever of P and Q has the smaller IC50 Indicate which entry you chose by stating its label.
P
